The following binders are listed with their measured kon values.
- Study system: T1, FZD8-Fc (UniProt Q9H461 28-158, limits assumed)
- T1 construct: extracellular domain; also called Frizzled-Fc chimera (FZD8); not shown: Fc part
- T1 sequence (looked up): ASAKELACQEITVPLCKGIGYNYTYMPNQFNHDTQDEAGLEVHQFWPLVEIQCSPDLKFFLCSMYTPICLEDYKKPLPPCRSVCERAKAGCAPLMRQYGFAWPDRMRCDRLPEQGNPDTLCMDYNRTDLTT
- Protocol summary: SPR, Frizzled-Fc chimera;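 further: binding targets are Fc fusions carrying an extracellular Frizzled fragment that contains the CRD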
# value in M⁻¹ s⁻¹; strip the unit string

Worked set:
Binder	Unit descriptor	kon
IgG-2916 (antibody, V domains shown) VH: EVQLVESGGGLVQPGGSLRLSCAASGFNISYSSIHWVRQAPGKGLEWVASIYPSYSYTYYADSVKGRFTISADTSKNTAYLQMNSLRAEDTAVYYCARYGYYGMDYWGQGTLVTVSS VL: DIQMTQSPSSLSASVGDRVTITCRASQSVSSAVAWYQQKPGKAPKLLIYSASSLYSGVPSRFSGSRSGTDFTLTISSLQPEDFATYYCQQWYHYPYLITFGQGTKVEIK	M⁻¹ s⁻¹	1.04e+06
IgG-2910 (antibody, V domains shown) VH: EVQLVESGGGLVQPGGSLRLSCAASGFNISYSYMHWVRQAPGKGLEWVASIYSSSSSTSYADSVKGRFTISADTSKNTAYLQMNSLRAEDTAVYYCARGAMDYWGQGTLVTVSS VL: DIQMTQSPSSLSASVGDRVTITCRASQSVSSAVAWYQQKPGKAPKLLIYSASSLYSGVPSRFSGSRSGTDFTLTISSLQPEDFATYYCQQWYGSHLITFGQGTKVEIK	M⁻¹ s⁻¹	533000

Next, consider the following binder.
Please report the recorded kon for IgG-2919 (antibody, V domains shown, human IgG1 heavy chain (hG1), human kappa light chain (hK)) VH: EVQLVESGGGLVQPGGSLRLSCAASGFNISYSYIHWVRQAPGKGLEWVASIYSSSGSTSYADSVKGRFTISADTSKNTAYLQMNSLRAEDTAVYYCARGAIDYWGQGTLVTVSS VL: DIQMTQSPSSLSASVGDRVTITCRASQSVSSAVAWYQQKPGKAPKLLIYSASSLYSGVPSRFSGSRSGTDFTLTISSLQPEDFATYYCQQWYSSGHVLITFGQGTKVEIKR . 533000
